Value source: the supplement of paper PMC10567573

# key: entry, value: protein stability index
B1: KCTD10 (parent)
chain: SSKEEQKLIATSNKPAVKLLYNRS

# Variants of: B1
# ASSAY_OVERVIEW: protein stability index of a GFP-peptide fusion (GPS, HEK-293T) (PSI 1-6); higher = more stable;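 also: lentivirally expressed fusions sorted by FACS into six bins by GFP to DsRed ratio, PSI derived from sequencing read proportions per bin multiplied by bin number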
# EXPERIMENTAL_CONDITIONS: c terminus: a fixed tail appended
// no unit, no text: just the number

Field: example entries. Status: answers known.
T11C 3.61
T11K 4.19
L20H 4.48
N22K 4.16
S2H 3.99

Now look at this entry.
For S1W the variant record lists protein stability index as 3.08
